System: experimental asthma model (airway resistance)
TEST: Effect on experimental asthma model in guinea pigs (airway resistance)
Type: in vivo, guinea pigs (male hartley)
APPLIED CONDITIONS: Cavia porcellus, po, 0.5 h, 50 mg/kg oral (TABLE 6)
REPORTED PROPERTY: inhibition in vivo at 50 mg/kg (%)

In [3]: df
Out[3]:
                                        mol                            assayed_target               reported_property  units_label  assay_value
0  CCCCCCCCOc1c(O)c(=O)oc2cc(O[C@@H]3O[C@H](CO)[C@@H](O)[C@H](O)[C@H]3O)ccc12  experimental asthma model (airway resistance)  inhibition in vivo at 50 mg/kg            %         60.6
1  O=c1oc2cc(O[C@@H]3O[C@H](CO)[C@@H](O)[C@H](O)[C@H]3O)ccc2c(O)c1OCc1ccccc1  experimental asthma model (airway resistance)  inhibition in vivo at 50 mg/kg            %         59.1
2  O=c1oc2cc(O[C@@H]3O[C@H](CO)[C@H](O)[C@H](O)[C@H]3O)ccc2c(O)c1OCc1ccccc1  experimental asthma model (airway resistance)  inhibition in vivo at 50 mg/kg            %         58.2
3  CCCCCCCCCCOc1c(O)c(=O)oc2cc(O[C@@H]3O[C@H](CO)[C@@H](O)[C@H](O)[C@H]3O)ccc12  experimental asthma model (airway resistance)  inhibition in vivo at 50 mg/kg            %         61.3
